tested on: Escherichia coli TOP10; assay: shrunken log2 fold change of peptide-encoding DNA abundance (4.5 h post-induction vs induction); higher = less antimicrobial activity (less host growth inhibition); details: time post-induction: 4.5 h; library: site-saturation at positions 5, 18, 19, 20;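 note: peptides expressed intracellularly from a pBAD plasmid library in pooled LB shake-flask culture, induced with 0.3% L-arabinose, DNA abundance read by NGS, three biological replicates, DESeq2 with apeglm shrinkage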
shrunken log2 fold change: recorded values
# print the numeric value only

RRIRRRPPRLPRPRPRPKNAPRP: 0.0423
RRIRVRPPRLPRPRPRPDAMPRP: 0.0806
RRIRPRPPRLPRPRPRPVHLPRP: 0.179
RRIRHRPPRLPRPRPRPMPWPRP: -0.032
RRIRQRPPRLPRPRPRPNTGPRP: -0.766
RRIRTRPPRLPRPRPRPNWTPRP: 0.00155

Next sequence, shrunken log2 fold change to be filled in.
Indicate the recorded shrunken log2 fold change value for this sequence: RRIRDRPPRLPRPRPRPFRNPRP
-0.0013

These measurements were taken from the supplement of paper PMC9112550.
